# TARGET OR SYSTEM: KOR (Homo sapiens, UniProt P41145)
# Construct: expressed in transfected cells; host or cells: CHO (hKOR-CHO)
# Sequence (P41145 whole entry): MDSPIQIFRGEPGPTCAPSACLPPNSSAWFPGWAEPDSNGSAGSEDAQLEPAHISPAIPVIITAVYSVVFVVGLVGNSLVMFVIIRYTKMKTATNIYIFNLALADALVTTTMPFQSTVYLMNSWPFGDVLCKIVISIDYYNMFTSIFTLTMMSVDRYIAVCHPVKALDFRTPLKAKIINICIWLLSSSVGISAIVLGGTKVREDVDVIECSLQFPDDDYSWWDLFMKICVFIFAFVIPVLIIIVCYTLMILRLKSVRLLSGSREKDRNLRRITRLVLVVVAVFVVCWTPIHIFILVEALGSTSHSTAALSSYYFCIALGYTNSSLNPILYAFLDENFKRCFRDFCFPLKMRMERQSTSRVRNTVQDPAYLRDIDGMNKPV
# RUN DESCRIPTION: [35S]GTP-γ-S binding assay, hKOR-CHO cells
# Type: biochemical
Define the label as true (1) when EC50 is strictly less than 30 nM and as false (0) in all remaining cases.

Consider the worked cases shown below.
MOLECULE	TARGET OR SYSTEM	LABEL
Oc1ccc2c3c1OC1c4ncc(-c5ccc(Cl)cc5)cc4CC4(OCc5ccccc5)C(C2)N(CC2CC2)CCC314 (stereo not drawn) [Compound 17b]	KOR (Homo sapiens, UniProt P41145)	true (1)
O=C(Cc1ccccc1)OC12Cc3cc(-c4ccc(Cl)cc4)cnc3C3Oc4c(O)ccc5c4C31CCN(CC1CC1)C2C5 (stereo not drawn) [Compound 18b]	KOR (Homo sapiens, UniProt P41145)	true (1)
COC12Cc3cc(-c4ccc(Cl)cc4)cnc3C3Oc4c(O)ccc5c4C31CCN(C)C2C5 (stereo not drawn) [Compound 17e]	KOR (Homo sapiens, UniProt P41145)	false (0)
CN1CCC23c4c5ccc(O)c4OC2c2ncc(-c4ccc(Cl)cc4)cc2CC3(OC(=O)Cc2ccccc2)C1C5 (stereo not drawn) [Compound 18e]	KOR (Homo sapiens, UniProt P41145)	false (0)
CN1CCC23c4c5ccc(O)c4OC2c2ncc(-c4ccc(Cl)cc4)cc2CC3(OC(=O)CCc2ccccc2)C1C5 (stereo not drawn) [Compound 18f]	KOR (Homo sapiens, UniProt P41145)	false (0)

Lab note: next molecule to report on.
Strictly below 30 nM: is that where EC50 of CN1CCC23c4c5ccc(O)c4OC2c2ncc(-c4ccc(Cl)cc4)cc2CC3(OCc2ccccc2)C1C5 (stereo not drawn) [Compound 17f] sits?
false (0)

---

# TARGET OR SYSTEM: UniProtKB P35372
# Sequence (P35372 whole entry): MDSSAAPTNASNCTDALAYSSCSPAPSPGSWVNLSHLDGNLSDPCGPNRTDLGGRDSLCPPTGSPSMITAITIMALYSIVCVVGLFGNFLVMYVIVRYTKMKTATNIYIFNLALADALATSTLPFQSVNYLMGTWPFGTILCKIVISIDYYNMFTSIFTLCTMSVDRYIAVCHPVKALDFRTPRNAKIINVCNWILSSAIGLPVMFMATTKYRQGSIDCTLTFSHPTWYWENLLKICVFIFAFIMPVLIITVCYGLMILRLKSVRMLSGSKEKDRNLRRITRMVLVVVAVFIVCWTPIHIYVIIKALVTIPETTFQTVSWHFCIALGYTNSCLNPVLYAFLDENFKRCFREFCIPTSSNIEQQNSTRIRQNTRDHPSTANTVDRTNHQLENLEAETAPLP
# RUN DESCRIPTION: [35S]GTP-γ-S binding assay, hMOR-CHO cells
ASSAY ENDPOINT: EC50 (nM)
The response must be a number in nM with no trailing unit.

These recorded examples may help you get a feel for the data.
MOLECULE	VALUE UNIT	EC50
CN1CCC23c4c5ccc(O)c4OC2c2ncc(-c4ccc(Cl)cc4)cc2CC3(OCCCc2ccccc2)C1C5 (stereo not shown) [Compound 17h]	nM	2.15
CN1CCC23c4c5ccc(O)c4OC2c2ncc(-c4ccc(Cl)cc4)cc2CC3(OC(=O)Cc2ccccc2)C1C5 (stereo not shown) [Compound 18e]	nM	87
CN1CCC23c4c5ccc(O)c4OC2c2ncc(-c4ccc(Cl)cc4)cc2CC3(OCc2ccccc2)C1C5 (stereo not shown) [Compound 17f]	nM	301

# molecule COC12Cc3cc(-c4ccc(Cl)cc4)cnc3C3Oc4c(O)ccc5c4C31CCN(C)C2C5 (stereo not shown) [Compound 17e] ; its EC50 = 379

---

# TARGET OR SYSTEM: DOR (Homo sapiens, UniProt P41143)
# Construct: expressed in transfected cells; host or cells: CHO (hDOR-CHO)
# Sequence (P41143 whole entry): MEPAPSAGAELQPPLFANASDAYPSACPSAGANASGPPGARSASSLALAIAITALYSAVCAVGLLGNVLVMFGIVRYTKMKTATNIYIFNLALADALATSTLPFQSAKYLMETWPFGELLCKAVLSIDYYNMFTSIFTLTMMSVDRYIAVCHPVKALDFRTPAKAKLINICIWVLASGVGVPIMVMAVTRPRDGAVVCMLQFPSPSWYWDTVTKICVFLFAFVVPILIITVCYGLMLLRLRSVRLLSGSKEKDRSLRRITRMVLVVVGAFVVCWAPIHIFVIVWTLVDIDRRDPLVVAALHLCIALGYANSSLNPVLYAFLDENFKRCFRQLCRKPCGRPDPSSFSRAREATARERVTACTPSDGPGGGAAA
# RUN DESCRIPTION: Opioid binding assay, displacement of [3H]DADLE, hDOR-CHO cell membranes
Rule: Ki below 2 nM gives Fulfilled, anything at or above gives Not fulfilled.

Here are 5 compounds together with their reported answers.
COMPOUND	LABEL
O=C(Cc1ccccc1)OC12Cc3cc(-c4ccc(Cl)cc4)cnc3C3Oc4c(O)ccc5c4C31CCN(CC1CC1)C2C5 (stereo not shown) [Compound 18b]	Fulfilled
CN1CCC23c4c5ccc(O)c4OC2c2ncc(-c4ccc(Cl)cc4)cc2CC3(OCCCc2ccccc2)C1C5 (stereo not shown) [Compound 17h]	Fulfilled
Oc1ccc2c3c1OC1c4ncc(-c5ccc(Cl)cc5)cc4CC4(OCC=Cc5ccccc5)C(C2)N(CC2CC2)CCC314 (stereo not shown) [Compound 17c]	Not fulfilled
CN1CCC23c4c5ccc(O)c4OC2c2ncc(-c4ccc(Cl)cc4)cc2CC3(OC(=O)CCc2ccccc2)C1C5 (stereo not shown) [Compound 18f]	Fulfilled
CN1CCC23c4c5ccc(O)c4OC2c2ncc(-c4ccc(Cl)cc4)cc2CC3(OC(=O)Cc2ccccc2)C1C5 (stereo not shown) [Compound 18e]	Fulfilled

Consider the record given below.
I wonder whether Oc1ccc2c3c1OC1c4ncc(-c5ccc(Cl)cc5)cc4C=C4C(C2)N(CC2CC2)CCC431 (stereo not shown) has Ki below 2 nM. Can you tell?
Not fulfilled
